Reported fraction unbound at 4 h, 100 µM values are given for each entry in this list.
- method: Plasma protein binding, mouse plasma
- Format: in vitro ADME
- applied-conditions: mouse, plasma, Tables 2 and 4; mouse plasma; read-out: fup, fraction unbound in mouse plasma
measurement-type: fraction unbound at 4 h, 100 µM

compound="Cc1nc(-c2cccc3ccccc23)c2ccn([C@@H]3O[C@H](COP(=O)(O)CP(=O)(O)O)[C@@H](O)[C@H]3O)c2n1 [18E.6]" measurement_type="fraction unbound at 4 h, 100 µM" experimental_result=0.51
compound=O=P(O)(O)CP(=O)(O)OC[C@H]1O[C@@H](n2ccc3c(-c4ccc5cc(F)ccc5c4)nc(Cl)nc32)[C@H](O)[C@@H]1O measurement_type="fraction unbound at 4 h, 100 µM" experimental_result=0.08
compound=O=P(O)(O)CP(=O)(O)OC[C@H]1O[C@@H](n2ccc3c(-c4ccco4)nc(Cl)nc32)[C@H](O)[C@@H]1O measurement_type="fraction unbound at 4 h, 100 µM" experimental_result=0.92
compound=O=P(O)(O)CP(=O)(O)OC[C@H]1O[C@@H](n2ccc3c(-c4cc(Br)c5ccccc5c4F)nc(Cl)nc32)[C@H](O)[C@@H]1O measurement_type="fraction unbound at 4 h, 100 µM" experimental_result=0.02
compound="O=P(O)(O)CP(=O)(O)OC[C@H]1O[C@@H](n2ccc3c(-c4cccc5ccccc45)nc(F)nc32)[C@H](O)[C@@H]1O [14D.6]" measurement_type="fraction unbound at 4 h, 100 µM" experimental_result=0.42
compound=O=P(O)(O)CP(=O)(O)OC[C@H]1O[C@@H](n2ccc3c(-c4ccc5c(c4)CCCC5)nc(Cl)nc32)[C@H](O)[C@@H]1O measurement_type="fraction unbound at 4 h, 100 µM" experimental_result=0.06
compound="O=P(O)(O)CP(=O)(O)OC[C@H]1O[C@@H](n2ccc3c(-c4cccc5c4CCCC5)nc(F)nc32)[C@H](O)[C@@H]1O [14D.12]" measurement_type="fraction unbound at 4 h, 100 µM" experimental_result=0.23
compound=O=P(O)(O)CP(=O)(O)OC[C@H]1O[C@@H](n2ccc3c(-c4cc5ccccc5[nH]4)nc(Cl)nc32)[C@H](O)[C@@H]1O measurement_type="fraction unbound at 4 h, 100 µM" experimental_result=0.21
compound="Cc1nc(-c2ccc3ccccc3c2)c2ccn([C@@H]3O[C@H](COP(=O)(O)CP(=O)(O)O)[C@@H](O)[C@H]3O)c2n1 [18E.7]" measurement_type="fraction unbound at 4 h, 100 µM" experimental_result=0.22
compound=O=P(O)(O)CP(=O)(O)OC[C@H]1O[C@@H](n2ccc3c(-c4cccc5c4CCCC5)nc(Cl)nc32)[C@H](O)[C@@H]1O measurement_type="fraction unbound at 4 h, 100 µM" experimental_result=0.22
compound=O=P(O)(O)CP(=O)(O)OC[C@H]1O[C@@H](n2ccc3c(-c4ccc5cc(Cl)ccc5c4)nc(Cl)nc32)[C@H](O)[C@@H]1O measurement_type="fraction unbound at 4 h, 100 µM" experimental_result=0.04
compound=O=P(O)(O)CP(=O)(O)OC[C@H]1O[C@@H](n2ccc3c(-c4cccc5ccccc45)nc(Cl)nc32)[C@H](O)[C@@H]1O measurement_type="fraction unbound at 4 h, 100 µM" experimental_result=0.27
compound=O=P(O)(O)CP(=O)(O)OC[C@H]1O[C@@H](n2ccc3c(-c4cc5ccccc5o4)nc(Cl)nc32)[C@H](O)[C@@H]1O measurement_type="fraction unbound at 4 h, 100 µM" experimental_result=0.19
compound="Cc1nc(-c2cc3ccccc3o2)c2ccn([C@@H]3O[C@H](COP(=O)(O)CP(=O)(O)O)[C@@H](O)[C@H]3O)c2n1 [18E.8]" measurement_type="fraction unbound at 4 h, 100 µM" experimental_result=0.3

====

- method: Microsomal stability assay, mouse liver microsomes
- Assay type: in vitro ADME
- applied-conditions: 10 μM
Reported Mics (m) comp remaining 60 min values are given for each entry in this list.
measurement-type: Mics (m) comp remaining 60 min (%)

compound=O=P(O)(O)CP(=O)(O)OC[C@H]1O[C@@H](n2ccc3c(-c4cccc5c4OCCC5)ncnc32)[C@H](O)[C@@H]1O measurement_type="Mics (m) comp remaining 60 min" unit_string=% experimental_result=94
compound=O=P(O)(O)CP(=O)(O)OC[C@H]1O[C@@H](n2ccc3c(-c4ccc5ccccc5c4)nc(Cl)nc32)[C@H](O)[C@@H]1O measurement_type="Mics (m) comp remaining 60 min" unit_string=% experimental_result=106
compound="C[C@H](Nc1cc(Cl)nc2c1cnn2[C@@H]1O[C@H](COP(=O)(O)CP(=O)(O)O)[C@@H](O)[C@H]1O)c1ccccc1F [AB680, quemliclustat, reference compound]" measurement_type="Mics (m) comp remaining 60 min" unit_string=% experimental_result=117
compound="O=P(O)(O)CP(=O)(O)OC[C@H]1O[C@@H](n2ccc3c(-c4cccc5c4CCCC5)nc(F)nc32)[C@H](O)[C@@H]1O [14D.12]" measurement_type="Mics (m) comp remaining 60 min" unit_string=% experimental_result=116
compound=O=P(O)(O)CP(=O)(O)OC[C@H]1O[C@@H](n2ccc3c(-c4ccc5cc(O)ccc5c4)nc(Cl)nc32)[C@H](O)[C@@H]1O measurement_type="Mics (m) comp remaining 60 min" unit_string=% experimental_result=111
compound="Nc1nc(-c2cc3ccccc3o2)c2ccn([C@@H]3O[C@H](COP(=O)(O)CP(=O)(O)O)[C@@H](O)[C@H]3O)c2n1 [11C.8]" measurement_type="Mics (m) comp remaining 60 min" unit_string=% experimental_result=97
compound=O=P(O)(O)CP(=O)(O)OC[C@H]1O[C@@H](n2ccc3c(-c4cccc5c4CCCC5)ncnc32)[C@H](O)[C@@H]1O measurement_type="Mics (m) comp remaining 60 min" unit_string=% experimental_result=100
compound=O=P(O)(O)CP(=O)(O)OC[C@H]1O[C@@H](n2ccc3c(-c4ccc5c(c4)CCO5)ncnc32)[C@H](O)[C@@H]1O measurement_type="Mics (m) comp remaining 60 min" unit_string=% experimental_result=94

====

- method: Plasma protein binding, equilibrium dialysis, human plasma
- Format: in vitro ADME
- applied-conditions: undiluted plasma, human plasma protein binding, read-out: PPB (hu) (converted)
measurement-type: fraction unbound at 4 h, 100 µM

compound="O=P(O)(O)CP(=O)(O)OC[C@H]1O[C@@H](n2ccc3c(-c4cccc5c4CCCC5)ncnc32)[C@H](O)[C@@H]1O [4A.12]" experimental_result=0.073
compound="O=P(O)(O)CP(=O)(O)OC[C@H]1O[C@@H](n2ccc3c(-c4ccc5cc(F)ccc5c4)nc(Cl)nc32)[C@H](O)[C@@H]1O [7B.25]" experimental_result="≤ 0.01"
compound="Cc1nc(-c2cc3ccccc3o2)c2ccn([C@@H]3O[C@H](COP(=O)(O)CP(=O)(O)O)[C@@H](O)[C@H]3O)c2n1 [18E.8]" experimental_result=0.026
compound="O=P(O)(O)CP(=O)(O)OC[C@H]1O[C@@H](n2ccc3c(-c4cccc5c4oc4ccccc45)ncnc32)[C@H](O)[C@@H]1O [4A.10]" experimental_result=0.004

====

Reported inhibition at 60 min, 10 µM values are given for each entry in this list.
- system: CYP2C19 (Homo sapiens, UniProt P33261)
- Construct: assay run by Bienta (Enamine Biology Services)
- Sequence (P33261 whole entry): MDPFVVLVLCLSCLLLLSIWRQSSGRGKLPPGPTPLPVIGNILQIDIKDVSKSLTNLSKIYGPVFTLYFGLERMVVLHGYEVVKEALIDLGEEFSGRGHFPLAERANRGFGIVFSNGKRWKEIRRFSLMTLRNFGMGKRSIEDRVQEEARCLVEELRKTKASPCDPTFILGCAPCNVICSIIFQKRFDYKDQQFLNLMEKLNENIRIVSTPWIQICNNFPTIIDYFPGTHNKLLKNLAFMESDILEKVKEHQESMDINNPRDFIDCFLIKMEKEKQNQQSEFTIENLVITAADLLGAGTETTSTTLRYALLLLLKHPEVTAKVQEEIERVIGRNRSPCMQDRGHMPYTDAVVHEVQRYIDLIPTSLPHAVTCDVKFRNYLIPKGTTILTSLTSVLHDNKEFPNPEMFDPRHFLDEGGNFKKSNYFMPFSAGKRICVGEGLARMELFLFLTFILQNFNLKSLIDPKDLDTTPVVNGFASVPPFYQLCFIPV
- method: In vitro CYP450 inhibition assay (Vivid)
- Type: biochemical
- applied-conditions: probe fluorogenic Vivid CYP450 substrate (not named)
measurement-type: inhibition at 60 min, 10 µM (%)

molecule=O=P(O)(O)CP(=O)(O)OC[C@H]1O[C@@H](n2ccc3c(-c4cccc5ccncc45)ncnc32)[C@H](O)[C@@H]1O experimental_result=3
molecule="O=P(O)(O)CP(=O)(O)OC[C@H]1O[C@@H](n2ccc3c(-c4ccc5c(c4)CCCC5)nc(I)nc32)[C@H](O)[C@@H]1O [27H.23]" experimental_result=-7
molecule=O=P(O)(O)CP(=O)(O)OC[C@H]1O[C@@H](n2ccc3c(-c4cccc5c4CCCC5)nc(Cl)nc32)[C@H](O)[C@@H]1O experimental_result=10
molecule="Cc1nc(-c2cccc3ccccc23)c2ccn([C@@H]3O[C@H](COP(=O)(O)CP(=O)(O)O)[C@@H](O)[C@H]3O)c2n1 [18E.6]" experimental_result=-20
molecule=O=P(O)(O)CP(=O)(O)OC[C@H]1O[C@@H](n2ccc3c(-c4ccc5c(c4)CCCC5)nc(Cl)nc32)[C@H](O)[C@@H]1O experimental_result=3
molecule=O=P(O)(O)CP(=O)(O)OC[C@H]1O[C@@H](n2ccc3c(-c4ccc(F)c5ccccc45)nc(Cl)nc32)[C@H](O)[C@@H]1O experimental_result=22
molecule=O=P(O)(O)CP(=O)(O)OC[C@H]1O[C@@H](n2ccc3c(-c4ccc5ccccc5c4)ncnc32)[C@H](O)[C@@H]1O experimental_result=10

# credit: paper PMC12797170
